- System: Mycobacterium tuberculosis H37Rv
- assay.comment: Microtiter dilution MIC assay in GAST-Fe and 7H9-based media
- Type: cell-based
- condition.info: GAST-Fe medium pH 6.6, read after week 2
quantity.kind: MIC (Gast/Fe) Week 2
Field: value (include unit after the number)

May I ask what MIC (Gast/Fe) Week 2 has been recorded for Clc1ccccc1NCc1ccc(Oc2ccccn2)cc1 [Compound 2i] ?
20 µM

Bench note: what MIC (Gast/Fe) Week 2 did Brc1cccc(NCc2ccc(Oc3ccccn3)cc2)c1 [Compound 2m] show?
35 µM

# MIC (Gast/Fe) Week 2 lookup, item Clc1ccc(NCc2ccc(Oc3ccccn3)cc2)cc1 [Compound 2g]
40 µM

Would you mind telling me what MIC (Gast/Fe) Week 2 value was observed for Fc1ccc(NCc2ccc(Oc3ccccn3)cc2)cc1 [Compound 2j] ?
25 µM

Any idea what MIC (Gast/Fe) Week 2 was measured for COc1cccc(NCc2ccc(Oc3ccccn3)cc2)c1 [Compound 2c] ?
37 µM

Could you share which MIC (Gast/Fe) Week 2 value was measured for c1ccc(NCc2ccc(Oc3ccccn3)cc2)cc1 [Compound 2a, N-(4-(pyridin-2-yloxy)benzyl) aniline] ?
37 µM

What measured MIC (Gast/Fe) Week 2 goes with Clc1cccc(NCc2ccc(Oc3ccccn3)cc2)c1 [Compound 2h] ?
40 µM

Each recorded value in this set is attributed to paper PMC11382352.
